study-system: hPIF1HD V258A (Homo sapiens, UniProt Q9H611, V258A)
Construct: The human PIF1 helicase domain and mutants (hPIF1HD, residues 206–620); hexa-histidine tag (N, cleaved yes)
procedure-details: ssDNA d(T)55 binding assay (EMSA), hPIF1HD V258A variant
test-settings: 0.25 nM d(T)55, 2 nM protein, 5 mM AMP-PNP, 0.0078–2 mM compound; read-out: IC50 for inhibition of ssDNA binding, V258A
Please respond with reported pIC50 for every item in the list.
Numbers only, as −log10 of the molar value.

Use the examples below as a reference point.
N#Cc1ccc(-c2csc(N)n2)cc1: 4.10
Nc1nc(-c2ccc(C(=O)c3ccccc3)cc2)cs1: 3.53
CC(=O)c1ccc(-c2csc(N)n2)cc1: 3.99
CC(=O)Nc1ccc(-c2csc(N)n2)cc1C1=CCNCC1: 3.82

Please turn your attention to the following entry.
Measured pIC50, CC(=O)Nc1ccc(-c2csc(N)n2)cc1-c1ccc(C)cc1 : 3.82

----------
study-system: FLhPIF1 (full length human PIF1) (Homo sapiens, UniProt Q9H611)
Construct: Full length human PIF1 (FLhPIF1) was expressed and purified as a His-SUMO fusion; His-SUMO (cleaved yes); made in house; 'following similar protocols' to hPIF1HD (ArcticExpress BL21(DE3) E. coli)
procedure-details: radiometric strand displacement helicase assay, no pre-incubation
Format: biochemical
test-settings: 0.0078–2 mM compound, 10 nM FLhPIF1, 0.1 nM DNA substrate, no pre-incubation, n = 3; read-out: IC50 for inhibition of FLhPIF1 helicase activity
measurement-kind: IC50 (µM)
Answers are plain numbers, in µM.

Please review the entries below; each comes with its answer.
Nc1nc(-c2ccc(C(=O)c3ccccc3)cc2)cs1: 36
CC(=O)Nc1ccc(-c2csc(NC(C)=O)n2)cc1: 569
N#Cc1ccc(-c2csc(N)n2)cc1: 105
COC(=O)c1ccc(-c2csc(N)n2)cc1: 78

Documented IC50 of CC(=O)Nc1ccc(-c2csc(N)n2)cc1-c1ccc(C)cc1 : 174

----------
study-system: FLhPIF1 (full length human PIF1) (Homo sapiens, UniProt Q9H611)
Construct: Full length human PIF1 (FLhPIF1) was expressed and purified as a His-SUMO fusion; His-SUMO (cleaved yes); made in house; 'following similar protocols' to hPIF1HD (ArcticExpress BL21(DE3) E. coli)
procedure-details: radiometric strand displacement helicase assay, no pre-incubation
Type: biochemical
test-settings: 0.0078–2 mM compound, 10 nM FLhPIF1, 0.1 nM DNA substrate, no pre-incubation, n = 3; read-out: IC50 for inhibition of FLhPIF1 helicase activity
Exercise: state measured IC50 for each of the molecules provided.

Below, 2 molecules whose answers are already recorded.
CC(=O)c1ccc(-c2csc(N)n2)cc1: 165 µM
CC(=O)Nc1ccc(-c2csc(N)n2)cc1N1CCNCC1: 307 µM

Go through the items and report each one's IC50.
1. CNCCNc1cc(-c2csc(N)n2)ccc1[N+](=O)[O-]
2. CC(=O)Nc1ccc(-c2csc(N)n2)cc1C1=CCNCC1
3. Nc1nc(-c2ccc([N+](=O)[O-])cc2)cs1

Response:
["176 µM", "188 µM", "184 µM"]

----------
study-system: FLhPIF1 (Homo sapiens)
Construct: Full length human PIF1 (FLhPIF1) was expressed and purified as a His-SUMO fusion; His-SUMO (cleaved yes); made in house; 'following similar protocols' to hPIF1HD (ArcticExpress BL21(DE3) E. coli)
procedure-details: helicase assay after pre-incubation of SMI with FLhPIF1
Type: biochemical
test-settings: 2 h pre-incubation at 22°C; read-out: IC50 for dsDNA unwinding by FLhPIF1 following pre-incubation
Procedure: Helicase activity was assayed using a radiometric strand displacement assay employing a partially single- and double-stranded substrate generated by annealing two oligonucleotides: 5′-(T)55-[…] and 5′-[…], as described previously ([19],[28]). […] Dried gels were exposed to phosphorimaging plates (Fujifilm) for imaging and quantification (Fuji FLA3000, image gauge V3.3 software). IC50 values were analysed by non-linear regression (variable slope) using GraphPad Prism. […]
measurement-kind: IC50

Value of IC50 reported for the compound CC(=O)Nc1ccc(-c2csc(N)n2)cc1 is ~1 mM

----------
Give pIC50 for every item shown.
study-system: hPIF1HD (Homo sapiens, UniProt Q9H611)
Construct: the hPIF1HD construct starts at residue Gln 206 and ends at Leu 620; hexa-histidine tag (N, cleaved yes); made in house; host or cells: ArcticExpress BL21(DE3) E. coli (Agilent Technologies)
Sequence (Q9H611 206-620): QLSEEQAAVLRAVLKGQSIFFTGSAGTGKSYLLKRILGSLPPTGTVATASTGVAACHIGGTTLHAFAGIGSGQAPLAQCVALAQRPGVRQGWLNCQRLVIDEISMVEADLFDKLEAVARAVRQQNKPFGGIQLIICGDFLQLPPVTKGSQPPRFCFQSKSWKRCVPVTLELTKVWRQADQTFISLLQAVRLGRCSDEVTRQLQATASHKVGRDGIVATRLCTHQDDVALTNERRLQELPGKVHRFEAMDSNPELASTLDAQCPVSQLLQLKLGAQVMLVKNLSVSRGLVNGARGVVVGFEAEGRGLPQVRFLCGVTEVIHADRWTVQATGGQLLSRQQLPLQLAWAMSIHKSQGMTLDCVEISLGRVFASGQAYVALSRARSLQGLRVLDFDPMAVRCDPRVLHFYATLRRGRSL
procedure-details: ssDNA d(T)55 binding assay (EMSA), wild-type hPIF1HD
test-settings: 0.25 nM d(T)55, 2 nM hPIF1HD, 5 mM AMP-PNP, 0.0078–2 mM SMI, n = 3; read-out: IC50 for inhibition of hPIF1HD ssDNA binding, WT
Give bare numbers, as −log10 of the molar value.

Look over these answered cases.
Nc1nc(-c2ccc(C(=O)c3ccccc3)cc2)cs1: 3.14
CC(=O)Nc1ccc(-c2csc(N)n2)cc1-c1ccc(C)cc1: 3.65
N#Cc1ccc(-c2csc(N)n2)cc1: 3.70

Reported pIC50 ( CC(=O)Nc1ccc(-c2csc(N)n2)cc1C1=CCNCC1 ) = 3.55

----------
study-system: FLhPIF1 (full length human PIF1) (Homo sapiens)
Construct: Full length human PIF1 (FLhPIF1) was expressed and purified as a His-SUMO fusion; His-SUMO (cleaved yes); made in house; 'following similar protocols' to hPIF1HD (ArcticExpress BL21(DE3) E. coli)
procedure-details: radiometric strand displacement helicase assay, no pre-incubation
Type: biochemical
test-settings: no pre-incubation, value with large error, n = 3; read-out: IC50 against FLhPIF1 helicase
pIC50: −log10 of the molar value.
measurement-kind: pIC50

Input CC(=O)Nc1ccc(-c2csc(N)n2)cc1 [Compound 1F] . Output pIC50: ~2.92

----------
Give measured pIC50 for each item. Keep answers brief.
study-system: hPIF1HD V258L (Homo sapiens, UniProt Q9H611, V258L)
Construct: The human PIF1 helicase domain and mutants (hPIF1HD, residues 206–620); hexa-histidine tag (N, cleaved yes)
procedure-details: ssDNA d(T)55 binding assay (EMSA), hPIF1HD V258L variant
test-settings: 0.25 nM d(T)55, 2 nM protein, 5 mM AMP-PNP, 0.0078–2 mM compound; read-out: IC50 for inhibition of ssDNA binding, V258L
Give bare numbers, as −log10 of the molar value.

Please review the entries below; each comes with its answer.
CC(=O)Nc1ccc(-c2csc(N)n2)cc1C1=CCNCC1 [Compound 11]: 3.26
CC(=O)Nc1ccc(-c2csc(N)n2)cc1-c1ccc(C)cc1 [Compound 10]: 3.42
CC(=O)c1ccc(-c2csc(N)n2)cc1 [Compound 2]: 3.52
N#Cc1ccc(-c2csc(N)n2)cc1 [Compound 5]: 3.38

Let's switch to this molecule now.
Record summary for Nc1nc(-c2ccc(C(=O)c3ccccc3)cc2)cs1 [Compound 6] : reported pIC50 = 3.00

----------
study-system: FLhPIF1 (full length human PIF1) (Homo sapiens)
Construct: Full length human PIF1 (FLhPIF1) was expressed and purified as a His-SUMO fusion; His-SUMO (cleaved yes); made in house; 'following similar protocols' to hPIF1HD (ArcticExpress BL21(DE3) E. coli)
procedure-details: radiometric strand displacement helicase assay, no pre-incubation
Type: biochemical
test-settings: 1 mM single point, gel-based DNA unwinding assay, four repeats (S4 n=3)
Give measured inhibition at 1000 µM for each item. Keep answers brief.
Answers are plain numbers, in %.

Take a look at these entries with their results.
CC(=O)Nc1ccc(-c2csc(N)n2)cc1-c1cnn(C)c1: -16.9
CNCCNc1cc(-c2csc(N)n2)ccc1[N+](=O)[O-]: 77.8
Nc1nc(-c2ccc(Oc3ccccc3)cc2)cs1: 61.7
CC(=O)c1ccc(-c2csc(N)n2)cc1: 79.1
N#Cc1ccc(-c2csc(N)n2)cc1: 84

Record inhibition at 1000 µM for all entries; do not skip any.
1. CC(=O)Nc1ccc(-c2csc(N)n2)cc1-c1cccnc1
2. CC(=O)Nc1ccc(-c2csc(C)n2)cc1
3. CC(=O)Nc1ccc(-c2csc(N)n2)cc1OC1CCCC1
4. CS(=O)(=O)c1ccc(-c2csc(N)n2)cc1
5. CC(=O)Nc1ccc(-c2csc(N)n2)cc1N1CCN(C)CC1
6. CC(=O)Nc1ccc(-c2csc(N)n2)cc1N1CCOCC1

Response:
[-17.3, -3, 50, 46.6, 24.3, 11.5]

These entries and their values trace back to paper PMC11551755.
